Test system: HCV replicon cells
PROTOCOL SUMMARY: Cell-based HCV replicon assay (replicon RNA level by real time PCR, Taqman)
CONDITION LABEL: Hepatitis C virus, 72 h, HCV replicon cells, harvested on day 3, replicon RNA by real time PCR; calculated EC90 reported as range class; read-out: EC90 (μM) range
MEASURED ENDPOINT: EC90

Use these answered entries as a reference point.
CHEMICAL STRING: Cc1nc(NCC2CC2)nc(N[C@@H]2C[C@H](CO)[C@H]3OC(C)(C)O[C@H]32)c1-c1cc2cc(C(F)(F)F)ncc2o1
EC90: 0.5 to 5 µM
//
CHEMICAL STRING: Cc1nc(NCCNC(=O)OCc2ccccc2)nc(N[C@@H]2C[C@H](CO)[C@H]3OC(C)(C)O[C@H]32)c1-c1nc2ccccc2s1
EC90: 0.5 to 5 µM
//
CHEMICAL STRING: CCc1cc2cc(-c3c(C)nc(NCCOC)nc3N[C@@H]3C[C@H](CO)[C@@H](O)[C@H]3O)oc2cn1
EC90: < 0.5 µM

Prompt: Annotate the compound Cc1nc(NCCNC(=O)OCc2ccccc2)nc(N[C@@H]2C[C@H](CO)[C@@H](O)[C@H]2O)c1-c1nc2ccccc2s1 with its measured EC90.
Response: 0.5 to 5 µM

Prompt: Tell us which EC90 value is on record for CCCCCNc1nc(Cl)c(-c2cc3cc(CC)ncc3o2)c(N[C@@H]2C[C@H](CO)[C@@H](O)[C@H]2O)n1
Response: < 0.5 µM

Prompt: Supply recorded EC90 for CN(C)c1nc(N[C@@H]2C[C@H](CO)[C@@H](O)[C@H]2O)c(-c2nc3ccccc3s2)c(C2CC2)n1 here.
Response: 0.5 to 5 µM

---

Reported EC90 values for a set of compounds
Test system: HCV replicon cells
PROTOCOL SUMMARY: Cell-based HCV replicon assay (replicon RNA level by real time PCR, Taqman)
CONDITION LABEL: Hepatitis C virus, 72 h, HCV replicon cells, harvested day 3, replicon RNA by real time PCR; given as number; read-out: EC90 (μM) range
Record the result as a number with its unit.

COMPOUND: CCOc1cc2cc(-c3c(C)nc(N[C@H](C)C4CC4)nc3N[C@@H]3C[C@H](CO)[C@@H](O)[C@H]3O)oc2c(C)n1 [Example 41]
TESTED SYSTEM: HCV replicon cells
EC90: 0.2 µM

COMPOUND: CCOc1cc2cc(-c3c(C)nc(NCC(F)(F)F)nc3N[C@@H]3C[C@H](CO)[C@@H](O)[C@H]3O)oc2c(C)n1 [Example 29]
TESTED SYSTEM: HCV replicon cells
EC90: 0.1 µM

Next compound, please.
Prompt: Return value of EC90 for input COCCNc1nc(C)c(-c2cc3cc(OC)ncc3o2)c(N[C@@H]2C[C@H](CO)[C@@H](O)[C@H]2O)n1 [Example 25] , no commentary.
Response: 0.8 µM

---

Tested on: HCV replicon cells
PROTOCOL SUMMARY: Cell-based HCV replicon assay (replicon RNA level by real time PCR, Taqman)
CONDITION LABEL: Hepatitis C virus, 72 h, HCV replicon cells, harvested day 3, replicon RNA by real time PCR; reported as range class; read-out: EC90 (μM) range
Entries and their EC90 values follow.

Some compounds with recorded EC90:
CHEMICAL STRING: CNc1nc(Cl)c(-c2nc3ccccc3s2)c(N(C)[C@@H]2C[C@H](CO)[C@@H](O)[C@H]2O)n1
EC90: > 5 µM
//
CHEMICAL STRING: Nc1nc(Cl)c(-c2cccc(N3CCOCC3)n2)c(N[C@@H]2C[C@H](CO)[C@@H](O)[C@H]2O)n1
EC90: > 5 µM
//
CHEMICAL STRING: Nc1nc(Cl)c(-c2cc3cnc(=O)[nH]c3o2)c(N[C@@H]2C[C@H](CO)[C@@H](O)[C@H]2O)n1
EC90: > 5 µM
//
CHEMICAL STRING: CCCOc1ccc2nc(-c3c(Cl)nc(N)nc3N[C@@H]3C[C@H](CO)[C@@H](O)[C@H]3O)sc2c1
EC90: < 0.5 µM
//
CHEMICAL STRING: CN(C)c1ccc2nc(-c3c(Cl)nc(N)nc3N[C@@H]3C[C@H](CO)[C@@H](O)[C@H]3O)sc2c1
EC90: > 5 µM
//
CHEMICAL STRING: CN(C)c1nc(N[C@@H]2C[C@H](CO)[C@@H](O)[C@H]2O)c(-c2nc3ccccc3s2)c(-c2ccccc2)n1
EC90: > 5 µM

In the following, a different compound is considered.
Prompt: Consider the compound CCN(C)c1nc(Cl)c(-c2nc3ccccc3s2)c(N[C@@H]2C[C@H](CO)[C@@H](O)[C@H]2O)n1 tested on HCV replicon cells; state its EC90.
Response: < 0.5 µM
